Biological target: CB2 receptor (Rattus norvegicus)
Sequence (Q9QZN9 1-343 limits assumed): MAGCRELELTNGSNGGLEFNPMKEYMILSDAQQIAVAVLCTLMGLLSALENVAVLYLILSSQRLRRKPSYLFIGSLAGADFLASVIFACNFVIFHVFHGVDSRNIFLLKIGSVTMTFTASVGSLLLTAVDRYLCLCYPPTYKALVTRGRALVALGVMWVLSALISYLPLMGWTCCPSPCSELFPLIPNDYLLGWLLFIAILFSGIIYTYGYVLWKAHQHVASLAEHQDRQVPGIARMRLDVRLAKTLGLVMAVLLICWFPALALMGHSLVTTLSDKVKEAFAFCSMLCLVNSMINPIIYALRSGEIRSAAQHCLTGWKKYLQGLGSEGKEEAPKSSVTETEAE
Hi! Could you tag entries with IC50 below 1000 nM as rule met, and those at or above as rule not met? Much appreciated.

Observe how each entry below is paired with its result.
line notation	group label
c1ccc(CCc2noc(-c3cn(CCN4CCOCC4)c4ccccc34)n2)cc1	rule not met
CCCCCn1cc(-c2nc(Cc3ccccc3)no2)c2ccccc21	rule met
c1ccc(-c2ccc(-c3noc(-c4cn(CCN5CCOCC5)c5ccccc45)n3)cc2)cc1	rule not met
COc1ccc(Cc2noc(-c3cn(CCN4CCOCC4)c4ccccc34)n2)cc1	rule not met

Consider now this further compound.
Below 1000 nM on IC50? Entry `c1ccc(Cc2noc(-c3cn(CCN4CCCC4)c4ccccc34)n2)cc1`
rule not met

* * *

Target: CB1 receptor (Mus musculus, UniProt P47746)
Construct: Mouse vasa deferentia were dissected with capsular connective tissue intact and set up in 20 ml organ baths; from tissue; host or cells: mouse (Swiss white) isolated vas deferens
Sequence (P47746 whole entry): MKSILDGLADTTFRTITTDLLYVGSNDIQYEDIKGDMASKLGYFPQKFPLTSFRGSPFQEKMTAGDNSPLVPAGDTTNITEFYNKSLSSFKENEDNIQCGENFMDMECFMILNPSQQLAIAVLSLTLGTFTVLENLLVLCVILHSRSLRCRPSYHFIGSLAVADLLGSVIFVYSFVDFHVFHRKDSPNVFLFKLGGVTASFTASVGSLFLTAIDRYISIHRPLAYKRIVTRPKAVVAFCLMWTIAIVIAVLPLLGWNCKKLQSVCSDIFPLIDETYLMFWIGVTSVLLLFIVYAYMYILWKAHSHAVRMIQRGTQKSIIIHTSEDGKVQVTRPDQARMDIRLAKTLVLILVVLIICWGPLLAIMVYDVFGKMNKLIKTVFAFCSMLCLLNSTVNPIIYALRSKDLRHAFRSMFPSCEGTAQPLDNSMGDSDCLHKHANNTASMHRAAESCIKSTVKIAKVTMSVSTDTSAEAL
Assay: Mouse electrically-stimulated isolated vas deferens bioassay (MVD)
Assay type: cell-based
Settings: decrease of electrically evoked twitch force
The reader will find reported CB1 (MVD) % inh at 1.0 μM values listed item by item below.
Quick reminder: number only, in %, skip the unit.

line notation	target system	CB1 (MVD) % inh at 1.0 μM [%]
O=C(O)CCCCn1cc(-c2nc(Cc3ccc4ccccc4c3)no2)c2ccccc21	CB1 receptor (Mus musculus, UniProt P47746)	54

Pending molecule:
// `c1ccc2cc(Cc3noc(-c4cn(CCN5CCCC5)c5ccccc45)n3)ccc2c1` : CB1 (MVD) % inh at 1.0 μM value = 96

* * *

Target: CB1 receptor (Mus musculus)
Construct: Mouse vasa deferentia were dissected with capsular connective tissue intact and set up in 20 ml organ baths; from tissue; host or cells: mouse (Swiss white) isolated vas deferens
Experiment: Mouse electrically-stimulated isolated vas deferens bioassay (MVD)
Type: cell-based
Details: decrease of electrically evoked twitch force
endpoint label: CB1 (MVD) % inh at 1.0 μM (%)
Quick reminder: number only, in %, skip the unit.

compound	CB1 (MVD) % inh at 1.0 μM, %
CCOC(=O)CCCCn1cc(-c2nc(Cc3ccc4ccccc4c3)no2)c2ccccc21 [Compound 14]	42
CCOC(=O)CCn1cc(-c2nc(Cc3ccc4ccccc4c3)no2)c2ccccc21 [Compound 16]	77

// c1ccc(-c2ccc(-c3noc(-c4cn(CCN5CCOCC5)c5ccccc45)n3)cc2)cc1 [Compound 11] : CB1 (MVD) % inh at 1.0 μM value = 11
